The values you see were collected from patent US20250163127A1.

Target: CTLA4 (human)
Sequence (chain, as listed by the source): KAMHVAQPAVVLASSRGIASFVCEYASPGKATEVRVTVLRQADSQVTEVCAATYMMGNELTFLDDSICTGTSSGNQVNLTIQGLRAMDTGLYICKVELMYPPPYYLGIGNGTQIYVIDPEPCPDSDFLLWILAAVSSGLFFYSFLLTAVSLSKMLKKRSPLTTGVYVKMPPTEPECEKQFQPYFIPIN
Experiment: flow cytometry, CHO cells stably expressing CTLA4
measure: Fold change to WT CD80
Just the number plus its unit, please.

Some solved entries appear below for comparison.
CD80 variant Q33L/E35D/M47L/A71G/F92S IgV-Fc (Fc fusion) VIHVTKEVKEVATLSCGHNVSVEELAQTRIYWLKDKKMVLTMMSGDLNIWPEYKNRTIFDITNNLSIVILGLRPSDEGTYECVVLKYEKDASKREHLAEVT; 0.01 fold
CD80 variant A26E/Q33R/E35D/M47L/L85Q IgV-Fc (Fc fusion) VIHVTKEVKEVATLSCGHNVSVEELEQTRIYWRKDKKMVLTMMSGDLNIWPEYKNRTIFDITNNLSIVILALRPSDEGTYECVVQKYEKDAFKREHLAEVT; 0.01 fold
CD80 variant Q33L/E35D/M43V/M47I/A71G IgV-Fc (Fc fusion) VIHVTKEVKEVATLSCGHNVSVEELAQTRIYWLKDKKMVLTMVSGDINIWPEYKNRTIFDITNNLSIVILGLRPSDEGTYECVVLKYEKDAFKREHLAEVT; 0.08 fold

Moving on to the next binder.
Any idea what its Fold change to WT CD80 is? The binder is CD80 variant Y31S/E35D/M47L/T79L/E88G IgV-Fc (Fc fusion) VIHVTKEVKEVATLSCGHNVSVEELAQTRISWQKDKKMVLTMMSGDLNIWPEYKNRTIFDITNNLSIVILALRPSDEGLYECVVLKYGKDAFKREHLAEVT
0.01 fold
